Target: recombinant human GSK3β (Homo sapiens, UniProt P49841)
Sequence (P49841 whole entry): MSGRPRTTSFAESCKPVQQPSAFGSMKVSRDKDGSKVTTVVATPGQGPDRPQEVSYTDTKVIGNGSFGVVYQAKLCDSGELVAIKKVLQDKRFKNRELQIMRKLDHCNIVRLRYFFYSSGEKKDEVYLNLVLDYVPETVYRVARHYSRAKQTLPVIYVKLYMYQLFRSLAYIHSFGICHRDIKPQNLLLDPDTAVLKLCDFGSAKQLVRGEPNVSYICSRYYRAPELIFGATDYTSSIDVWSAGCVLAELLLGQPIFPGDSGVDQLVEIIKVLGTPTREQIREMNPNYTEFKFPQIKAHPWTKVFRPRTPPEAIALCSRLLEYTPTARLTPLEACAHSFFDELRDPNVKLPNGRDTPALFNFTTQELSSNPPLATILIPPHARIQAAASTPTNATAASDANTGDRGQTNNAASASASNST
Assay: GSK3β Scintillation Proximity Assay (ATP competition)
Settings: ATP 1 μM; Km of ATP for GSK3β 20 μM; peptide substrate 1 μM
parameter measured: Ki (nM)

1. N#Cc1ccc2[nH]c(O)c(-c3ccc(C(=O)O)cn3)c2c1    32
